// data source = ChEMBL document CHEMBL2417534

# SYSTEM: Kir3.1/Kir3.4 (Homo sapiens, UniProt P48544+P48549)
# Sequence (P48549 whole entry): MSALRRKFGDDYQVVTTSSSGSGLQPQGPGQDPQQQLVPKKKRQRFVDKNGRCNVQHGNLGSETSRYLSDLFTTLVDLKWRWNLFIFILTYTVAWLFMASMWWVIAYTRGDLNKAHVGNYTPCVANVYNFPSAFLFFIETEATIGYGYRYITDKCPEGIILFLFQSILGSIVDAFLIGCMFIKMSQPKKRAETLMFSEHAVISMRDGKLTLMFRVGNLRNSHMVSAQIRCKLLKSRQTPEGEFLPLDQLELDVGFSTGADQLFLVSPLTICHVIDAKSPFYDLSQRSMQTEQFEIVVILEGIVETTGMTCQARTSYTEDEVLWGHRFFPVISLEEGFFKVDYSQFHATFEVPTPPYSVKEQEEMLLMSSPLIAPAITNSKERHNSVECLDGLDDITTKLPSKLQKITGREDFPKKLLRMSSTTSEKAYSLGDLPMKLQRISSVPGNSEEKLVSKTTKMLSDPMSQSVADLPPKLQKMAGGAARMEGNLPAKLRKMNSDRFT
# Sequence (P48544 whole entry): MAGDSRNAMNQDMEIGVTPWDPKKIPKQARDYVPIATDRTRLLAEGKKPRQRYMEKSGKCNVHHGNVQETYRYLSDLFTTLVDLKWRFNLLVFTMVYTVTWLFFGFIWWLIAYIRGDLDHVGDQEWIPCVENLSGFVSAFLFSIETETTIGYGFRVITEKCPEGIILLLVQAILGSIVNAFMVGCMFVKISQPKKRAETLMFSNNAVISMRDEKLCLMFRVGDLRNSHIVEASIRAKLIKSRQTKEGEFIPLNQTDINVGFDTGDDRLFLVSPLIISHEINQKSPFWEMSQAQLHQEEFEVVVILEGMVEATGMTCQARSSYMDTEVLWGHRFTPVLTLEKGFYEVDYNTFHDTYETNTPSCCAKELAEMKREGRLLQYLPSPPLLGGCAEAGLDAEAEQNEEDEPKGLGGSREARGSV
# PROCEDURE TEXT: Activation of GIRK1/4 (unknown origin) transfected in HEK293 cells after 4 mins by thallium flux-based fluorescence assay
# Assay type: cell-based
RESULT TYPE: pEC50
A value of pEC50 is the negative decimal logarithm of a concentration given in moles per litre.

1. Cc1ccc(NC(=O)Nc2ccc(Cl)cc2)cc1S(=O)(=O)N(C)C = 5.55

pEC50 for "Cc1ccc(NC(=O)Nc2ccccc2F)cc1S(=O)(=O)N(C)C" is 5.11

pEC50 for "O=C(Cc1ccccc1Cl)Nc1ccc(C(F)(F)F)cc1" is 5.68

pEC50 for "Cc1ccc(NC(=O)Nc2ccccc2Cl)cc1S(=O)(=O)N(C)C" is 5.17
